System: Mycobacterium tuberculosis
Test: Antimicrobial activity against Mycobacterium tuberculosis H37Rv after 21 days by micro-broth dilution method
Type: functional
Conditions: 504 h
Give measured MIC for each item. Keep answers brief.
Your answer is read as µM, so omit the unit and give the number.

Input line: Could you share which MIC value was measured for O=C1CC(n2ccnc2)C(=O)N1c1ccccc1 (stereo not drawn) ?
Output line: 82.9

Input line: I have this compound here, O=C1CC(Sc2nc[nH]n2)C(=O)N1c1ccccc1 (stereo not drawn) , and I need its recorded MIC.
Output line: 18.2

###

System: Mycobacterium tuberculosis
Test: Antimicrobial activity against Mycobacterium tuberculosis H37Rv after 21 days by micro-broth dilution method
Format: functional
Details: 504 h
Give MIC for every item shown.
Number in µM, nothing else.

Input line: If you can, please state the reported MIC value of O=C1CC(c2c(-c3ccccc3)cc3ccccn23)C(=O)N1Cc1ccccc1 (stereo not given) .
Output line: 52.6

Input line: What does the data say about its MIC? Entry: COc1ccc(N2C(=O)CC(Sc3nnc[nH]3)C2=O)cc1 (stereo not given)
Output line: 16.4

Input line: Would you kindly share the measured MIC for O=C1CC(c2c(-c3ccccc3)cc3ccccn23)C(=O)N1c1ccccc1 (stereo not given) ?
Output line: 109

Input line: Could you share which MIC value was measured for O=C1CC(N2CCc3ccccc3C2)C(=O)N1Cc1ccccc1 (stereo not given) ?
Output line: 31.2

Input line: # MIC lookup, item COc1ccc(N2C(=O)CC(n3ccnc3)C2=O)cc1 (stereo not given)
Output line: 55.3
